Biological target: T1, human 4Ig-B7H3 (B7H3-4Ig-His) (human, UniProt Q5ZPR3 29-466)
T1 construct: Recombinant His-tagged protein immobilised on a CM5 chip; also called 41g-B7H3; human 4Ig-B7-H3 (dominant isoform); not shown: His tag
T1 sequence: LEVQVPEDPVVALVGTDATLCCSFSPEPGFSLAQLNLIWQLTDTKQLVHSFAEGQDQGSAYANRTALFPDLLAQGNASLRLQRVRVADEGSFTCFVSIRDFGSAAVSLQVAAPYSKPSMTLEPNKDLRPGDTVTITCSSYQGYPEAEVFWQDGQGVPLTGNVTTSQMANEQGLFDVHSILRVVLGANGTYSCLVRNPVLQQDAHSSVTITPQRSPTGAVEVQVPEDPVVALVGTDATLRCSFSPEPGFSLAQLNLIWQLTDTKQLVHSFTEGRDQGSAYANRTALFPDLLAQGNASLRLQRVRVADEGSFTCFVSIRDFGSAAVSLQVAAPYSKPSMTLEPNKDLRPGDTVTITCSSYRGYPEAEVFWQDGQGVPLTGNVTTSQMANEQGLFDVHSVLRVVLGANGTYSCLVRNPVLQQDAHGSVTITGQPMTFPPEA
Assay: SPR, Biacore T200, 4Ig-B7H3-His on CM5 chip, 1:1 fit
Protocol: Both human B7H3 41g and 21g proteins were dissolved in PBS (Phosphate-Buffered Saline) to make 0.1 mg/ml stock solution and stored in −80° C. B7-H3 proteins were immobilized onto the CM5 sensor chip using Amine Coupling Kit. Both proteins were diluted to 10 ug/ml with 10 mM Sodium acetate, pH 5.0. […] A blank immobilized surface was used as a control […]
measured.property: t ½ (min)
Form entry: value (min) — number only.

Past entries and their recorded results:
binder	quantitative.result
175Lu-DTPA-8H9-antibody (CAR3) (antibody, mouse IgG1, kappa, V domains shown, p-SCN-Bn-CHX-A″-DTPA conjugated (CAR 3 per antibody), labelled with cold lutetium-175; sites not stated) VH: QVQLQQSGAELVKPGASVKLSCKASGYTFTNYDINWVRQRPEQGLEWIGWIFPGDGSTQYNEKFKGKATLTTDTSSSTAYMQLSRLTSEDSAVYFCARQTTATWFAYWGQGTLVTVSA VL: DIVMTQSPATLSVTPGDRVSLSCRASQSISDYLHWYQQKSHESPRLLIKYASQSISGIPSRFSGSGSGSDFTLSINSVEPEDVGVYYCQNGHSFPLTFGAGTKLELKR	48.7
175Lu-DOTA-8H9-antibody (CAR6.3) (antibody, mouse IgG1, kappa, V domains shown, p-SCN-Bn-DOTA conjugated (CAR 6.3 per antibody), labelled with cold lutetium-175; sites not stated) VH: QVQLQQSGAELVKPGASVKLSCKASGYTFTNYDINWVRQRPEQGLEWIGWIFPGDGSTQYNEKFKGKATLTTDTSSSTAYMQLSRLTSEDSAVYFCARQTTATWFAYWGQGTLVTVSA VL: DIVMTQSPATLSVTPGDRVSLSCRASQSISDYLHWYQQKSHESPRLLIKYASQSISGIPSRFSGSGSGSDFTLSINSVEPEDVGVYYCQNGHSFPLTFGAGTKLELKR	44.5

API: the following record is the query input.
Enquiry: Respond only with t ½ recorded for 175Lu-DOTA-8H9-antibody (CAR2.6) (antibody, mouse IgG1, kappa, V domains shown, p-SCN-Bn-DOTA conjugated (CAR 2.6 per antibody), labelled with cold lutetium-175; sites not stated) VH: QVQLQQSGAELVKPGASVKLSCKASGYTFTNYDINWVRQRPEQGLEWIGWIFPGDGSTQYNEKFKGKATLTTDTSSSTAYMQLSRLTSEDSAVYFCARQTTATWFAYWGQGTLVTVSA VL: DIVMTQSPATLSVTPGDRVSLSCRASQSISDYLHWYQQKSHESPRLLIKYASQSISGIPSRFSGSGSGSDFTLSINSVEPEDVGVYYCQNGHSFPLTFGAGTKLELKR
Return: 49.3
